- method.notes: refractive index (Na D-line) (dimensionless); xn = mol fraction of the nth substance listed
- conditions: 318.15 K; 101.32 kPa; Liquid; Standard Abbe refractometry; x1 = 0.1
± gives the expanded uncertainty stated by the source.
recorded.metric: refractive index

Before answering, review these 3 worked examples.
{"columns": ["compound", "refractive index"],
 "data": [
  ["COCCOCCOCCOC [2,5,8,11-tetraoxadodecane] + CCO", "1.3679 ± 0.0005"],
  ["COCCOCCOC [2,5,8-trioxanonane] + CCO", "1.3612 ± 0.0005"],
  ["COCCOC [1,2-dimethoxyethane] + CCO", "1.3539 ± 0.0005"]
]}

Now consider the entry below.
Given COCCOCCOCCOCCOC [2,5,8,11,14-pentaoxapentadecane] + CCO , respond with its refractive index.
1.3741 ± 0.0003

====

- method.notes: refractive index (Na D-line) (dimensionless); xn = mol fraction of the nth substance listed
- conditions: 318.15 K; 101.32 kPa; Liquid; Standard Abbe refractometry; x1 = 0.7999
Numbers after ± are expanded uncertainties.
compounds and their reported refractive index

Before answering, review these 3 worked examples.
{"columns": ["compound", "refractive index"],
 "data": [
  ["COCCOCCOCCOCCOC [2,5,8,11,14-pentaoxapentadecane] + CCO", "1.4184 ± 0.0003"],
  ["COCCOC [1,2-dimethoxyethane] + CCO", "1.3657 ± 0.0005"],
  ["COCCOCCOCCOC [2,5,8,11-tetraoxadodecane] + CCO", "1.4084 ± 0.0005"]
]}

Now consider the entry below.
Given COCCOCCOC [2,5,8-trioxanonane] + CCO , respond with its refractive index.
1.3929 ± 0.0005

====

compounds and their reported mass density
- method.notes: xn = mol fraction of the nth substance listed
- conditions: 298.15 K; 101.32 kPa; Liquid; x1 = 0.35
± gives the expanded uncertainty stated by the source.

{"columns": ["compound", "recorded.metric", "result"],
 "data": [
  ["COCCOCCOCCOCCOC [2,5,8,11,14-pentaoxapentadecane] + CCO", "mass density", "938.6 ± 0.3 kg/m3"]
]}

Given COCCOC [1,2-dimethoxyethane] + CCO , respond with its mass density.
824.9 ± 0.4 kg/m3

Given COCCOCCOCCOC [2,5,8,11-tetraoxadodecane] + CCO , respond with its mass density.
910.5 ± 0.3 kg/m3

Given COCCOCCOC [2,5,8-trioxanonane] + CCO , respond with its mass density.
875 ± 0.3 kg/m3

====

- method.notes: refractive index (Na D-line) (dimensionless); xn = mol fraction of the nth substance listed
- conditions: 318.15 K; 101.32 kPa; Liquid; Standard Abbe refractometry; x1 = 0.2
compounds and their reported refractive index
When you answer, write just the number.

Before answering, review these 3 worked examples.
{"columns": ["compound", "number"],
 "data": [
  ["COCCOCCOCCOCCOC [2,5,8,11,14-pentaoxapentadecane] + CCO", 1.3881],
  ["COCCOC [1,2-dimethoxyethane] + CCO", 1.3565],
  ["COCCOCCOC [2,5,8-trioxanonane] + CCO", 1.3692]
]}

Given COCCOCCOCCOC [2,5,8,11-tetraoxadodecane] + CCO , respond with its refractive index.
1.3794

====

molecules and their reported mass density
- method.notes: xn = mol fraction of the nth substance listed
- conditions: 318.15 K; 101.32 kPa; Liquid; x1 = 0.3
Number in kg/m3, nothing else.

Before answering, review these 3 worked examples.
{"columns": ["molecule", "mass density [kg/m3]"],
 "data": [
  ["COCCOCCOCCOC [2,5,8,11-tetraoxadodecane] + CCO", 881.4],
  ["COCCOCCOC [2,5,8-trioxanonane] + CCO", 847.3],
  ["COCCOC [1,2-dimethoxyethane] + CCO", 800.7]
]}

Now consider the entry below.
Given COCCOCCOCCOCCOC [2,5,8,11,14-pentaoxapentadecane] + CCO , respond with its mass density.
908.9

Reference source: the NIST ThermoML archive (doi:10.1021/je0302304)
